Numbers sourced from patent US4734418A.

# System: Spontaneously Hypertensive Rats
# Assay method text: Test 1: antihypertensive effects (systolic tail artery blood pressure) and heart rate in spontaneously hypertensive rats, oral
# Type: in vivo, rat (male, SHR)
# Experimental conditions: SHR, oral 1 mg/Kg, maximum value
Field: Change (%) in heart rate. Provide a value for each of the compounds that follow.

For this compound ( `CCN1C(=O)Cc2cnc(N3CCN(c4nc(N)c5cc(OC)c(OC)cc5n4)CC3)nc21` ), measured Change (%) in heart rate is +11.7%

For this compound ( `CNc1nc(N2CCN(c3nc(N)c4cc(OC)c(OC)cc4n3)CC2)ncc1C(=O)N(C)C` ), measured Change (%) in heart rate is +7.4%

For this compound ( `CCOC(=O)c1cnc(N2CCN(c3nc(N)c4cc(OC)c(OC)cc4n3)CC2)nc1C` ), measured Change (%) in heart rate is +2.2%

For this compound ( `CCN1C(=O)CCCc2nc(N3CCN(c4nc(N)c5cc(OC)c(OC)cc5n4)CC3)ncc21` ), measured Change (%) in heart rate is +11.0%

For this compound ( `CCN(CC)C(=O)c1cnc(N2CCN(c3nc(N)c4cc(OC)c(OC)cc4n3)CC2)nc1OC` ), measured Change (%) in heart rate is +3.6%

For this compound ( `CNC(=O)c1cnc(N2CCN(c3nc(N)c4cc(OC)c(OC)cc4n3)CC2)nc1NC` ), measured Change (%) in heart rate is +5.2%

For this compound ( `COc1cc2nc(N3CCN(c4ncc(C(=O)N5CCCC5)c(C)n4)CC3)nc(N)c2cc1OC` ), measured Change (%) in heart rate is +6.3%

For this compound ( `CCn1cc(C#N)c2nc(N3CCN(c4nc(N)c5cc(OC)c(OC)cc5n4)CC3)ncc2c1=O` ), measured Change (%) in heart rate is +7.4%
